Each recorded value in this set is attributed to the OPERA property sets (Mansouri et al. 2018).

READOUT NAME: logP

Example entries and their recorded answers appear below.
// query logP value for entry `c1ccc2c(c1)OCCOCCOCCOc1ccccc1OCCOCCOCCO2`
2.11

# repeat for `c1ccc2c(c1)OCCOCCOCCOCCOCCOCCOCCOc1ccccc1OCCO2`
1.82

I = c1ccc2c(c1)OCCOCCOCCOCCOCCO2
II = COCCOCCOCCOc1ccccc1OCCOCCOCCOC
When the recorded logP values are compared, which is smaller: that of I or that of II ? Write down the label attached to your selection.
II
(II: 0.38, I: 0.58)

P = c1ccc2c(c1)OCCOCCOCCOCCOc1ccccc1OCCOCCOCCOCCO2
Q = c1ccc2c(c1)OCCOCCOCCOCCOCCOCCOCCOc1ccccc1OCCOCCOCCOCCOCCOCCOCCO2
R = c1ccc2c(c1)OCCOCCOCCOCCOCCOCCOCCOCCOCCO2
Sort by logP, descending. When ranking, write the labels in the order the request describes.
P, Q, R
(P: 1.8, Q: 0.52, R: 0.03)
